The reported numbers originate from patent US20250346593A1.

assay.target: GST-RIPK2 fusion protein (human RIPK2 amino acids 1-310) (Homo sapiens (Human), UniProt O43353)
Sequence (O43353 1-310): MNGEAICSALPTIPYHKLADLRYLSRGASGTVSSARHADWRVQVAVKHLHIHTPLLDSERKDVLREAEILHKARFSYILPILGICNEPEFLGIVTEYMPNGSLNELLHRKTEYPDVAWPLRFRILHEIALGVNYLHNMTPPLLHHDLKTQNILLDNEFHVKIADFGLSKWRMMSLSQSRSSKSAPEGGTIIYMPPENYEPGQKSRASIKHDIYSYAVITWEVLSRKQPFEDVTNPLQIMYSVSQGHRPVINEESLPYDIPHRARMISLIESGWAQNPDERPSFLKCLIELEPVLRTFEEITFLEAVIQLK
measurement.protocol: RIPK2 binding competition assay (TR-FRET, Tracer 199)
measurement.type: IC50

Item: CCOc1cn2ncc(-c3cc(F)c(N)nc3F)c2cc1S(=O)(=O)C(C)(C)C | IC50: 2.5 to 20 nM

Query COc1cc2ncc(-c3cc(N)cc(C#N)c3)n2cc1S(=O)(=O)C(C)(C)C yields IC50 of 2.5 to 20 nM

What the record says about CCCS(=O)(=O)Nc1cc(-c2cnc3cc(OC)c(S(=O)(=O)C(C)(C)C)cn23)cnc1OC : IC50 is 2.5 to 20 nM

Record COc1cc2ncc(-c3cc(F)nc(N4CC5(C4)CC(O)(C(F)(F)F)C5)c3)n2cc1S(=O)(=O)C(C)(C)C . Reported IC50: 2.5 to 20 nM

Measured IC50 of COc1cc(-c2cnc3cc(OC)c(S(=O)(=O)C(C)(C)C)cn23)ccc1N : 2.5 to 20 nM

// IC50 value for COc1cc2ncc(-c3cc(F)nc(NCCO)c3)n2cc1S(=O)(=O)C(C)(C)C : 1 to 2.5 nM

Consider COc1cc2ncc(-c3cc(C#N)c(N)nc3F)n2cc1S(=O)(=O)C(C)(C)C . Its measured IC50 is 2.5 to 20 nM

Please fill in: IC50 reported for COc1cc2ncc(-c3cc(F)nc(NCC[C@H]4CNC(=O)C4)c3)n2cc1S(=O)(=O)C(C)(C)C (single isomer, unassigned) = < 1 nM

The measured IC50 associated with COc1cc2ncc(-c3cc(F)nc(N[C@H](C)CO)c3)n2cc1S(=O)(=O)C(C)(C)C reads 1 to 2.5 nM

Looking up CCCS(=O)(=O)Nc1c(F)ccc(-c2cnc3cc(OC)c(S(=O)(=O)C(C)(C)C)cn23)c1F , I see its IC50 listed as > 20 nM

Noted for COc1cc2ncc(-c3cc(N)c(OC)c(F)c3)n2cc1S(=O)(=O)C(C)(C)C : its IC50 reads 2.5 to 20 nM

Record summary for CCCS(=O)(=O)Nc1cc(-c2cnc3cc(OC)c(S(=O)(=O)C(C)(C)C)cn23)ccc1OC(F)F : reported IC50 = 1 to 2.5 nM

The measured IC50 associated with COc1cc2ncc(-c3cc(F)nc(NCc4ccn(C)c(=O)c4)c3)n2cc1S(=O)(=O)C(C)(C)C reads 1 to 2.5 nM

Entry under test: COc1cc2ncc(-c3cc(F)nc(NCC4(O)CC4)c3)n2cc1S(=O)(=O)C(C)(C)C . Its IC50 was 1 to 2.5 nM

Just so you know, measured IC50 for COc1cc2ncc(-c3cc(C#N)c(OC)c(NS(C)(=O)=O)c3)n2cc1S(=O)(=O)C(C)(C)C came out at 2.5 to 20 nM

molecule CCOc1cc2ncc(-c3cc(F)nc(NCCC(O)CC)c3)n2cc1S(=O)(=O)C(C)C (racemic) , IC50 observed: < 1 nM

Sure, the documented IC50 for COc1cc2ncc(-c3cc(N)nc(C(F)(F)F)c3)n2cc1S(=O)(=O)C(C)(C)C is 2.5 to 20 nM

Per the records, this molecule ( COc1cc2ncc(-c3ccc(N)c(Cl)c3F)n2cc1S(=O)(=O)C(C)(C)C ) has IC50 equal to 2.5 to 20 nM

Consider COc1cc2ncc(-c3ccc(N)c(OC(F)(F)F)c3)n2cc1S(=O)(=O)C(C)(C)C . Its measured IC50 is 2.5 to 20 nM

For reference, reported IC50 for COc1cc2ncc(-c3ccc(N)c(Cl)c3)n2cc1S(=O)(=O)C(C)(C)C stands at 2.5 to 20 nM

Recorded IC50 (molecule COc1cc2ncc(-c3cc(F)cc([N+](=O)[O-])c3)n2cc1S(=O)(=O)C(C)(C)C ): > 20 nM

Field IC50 (entry CCCS(=O)(=O)Nc1cc(OC(F)F)cc(-c2cnc3cc(OC)c(S(=O)(=O)C(C)(C)C)cn23)c1 ) reads 1 to 2.5 nM

IC50 for COc1cc2ncc(-c3cc(F)nc(N[C@H]4C[C@@H](O)C4)c3)n2cc1S(=O)(=O)C(C)(C)C is < 1 nM

// IC50 lookup, molecule = COc1cc2ncc(-c3cc(F)nc(NC[C@H]4CCNC(=O)C4)c3)n2cc1S(=O)(=O)C(C)(C)C (single isomer, unassigned) , result: < 1 nM

// IC50 value for CCCS(=O)(=O)Nc1cc(-c2cnc3cc(OC)c(S(=O)(=O)C(C)(C)C)cn23)cc(C)c1OC : 1 to 2.5 nM

Lookup result for COc1cc2ncc(-c3cc(F)nc(N[C@H]4C[C@@H](OC)C4)c3)n2cc1S(=O)(=O)C(C)(C)C ; measured IC50: 1 to 2.5 nM

Item: COc1cc2ncc(-c3cc(F)nc(NC(C)(C)CO)c3)n2cc1S(=O)(=O)C(C)(C)C | IC50: 2.5 to 20 nM

IC50 measured on COc1cc2ncc(-c3cc(F)nc(N4CCOCC4)c3)n2cc1S(=O)(=O)C(C)(C)C = 2.5 to 20 nM

Lab note: measured IC50 of COc1cc2ncc(-c3ccc(N)c(C#N)c3)n2cc1S(=O)(=O)C(C)(C)C was 2.5 to 20 nM

IC50 in this record for CCOc1nc(N)c(F)cc1-c1cnc2cc(OC)c(S(=O)(=O)C(C)(C)C)cn12 : 2.5 to 20 nM

Recorded IC50 (molecule COc1cc2ncc(-c3cc(F)nc(NCC4(CO)CC4)c3)n2cc1S(=O)(=O)C(C)(C)C ): 1 to 2.5 nM
